- assay: Multiple day oral dosing in dogs (exposure, clinical and anatomic pathology)
- Assay type: in vivo, Beagle dogs
- condition.context: Beagle, dog, plasma, oral, 1 mg/kg/day; read-out: Cmin D7, total
quantity.kind: concentration at 7 day
Please give the number followed by its unit.

What value of concentration at 7 day has been reported for the following compound? Cc1nc(-c2cn3c(n2)-c2ccc(-c4cnn(C(C)(C)C(N)=O)c4)cc2OCC3)n(C(C)C)n1
19 nM

###

- assay: Unbound fraction in dog plasma (Fu)
- Format: in vitro ADME
- condition.context: read-out: Fu dog (unbound fraction in species plasma)
# binarize fraction unbound: threshold 0.5 inclusive, high side t, low side f

# bool: fraction unbound of C[C@H](Nc1ccc2c(c1)OCCn1cc(N3C(=O)OC[C@H]3C(F)F)nc1-2)C(N)=O >= 0.5
t

# bool: fraction unbound of Cc1nc(-c2cn3c(n2)-c2ccc(-c4cnn(C(C)(C)C(N)=O)c4)cc2OCC3)n(C(C)C)n1 >= 0.5
f

# bool: fraction unbound of Cc1nc(NC(=O)N2CCC[C@H]2C(N)=O)sc1-c1ccnc(C(C)(C)C(F)(F)F)c1 >= 0.5
f

# bool: fraction unbound of CC(C)n1ncnc1-c1cn2c(n1)-c1ccc(O[C@@H](C)C(N)=O)cc1OCC2 >= 0.5
t

###

Consider the following compounds; for each one, report its Ki.
A number alone suffices; assume nM.

Reported Ki for PI3Kα (Homo sapiens (Human), UniProt P42336), given C[C@H](Nc1ccc2c(c1)OCCn1cc(N3C(=O)OC[C@H]3CF)nc1-2)C(N)=O [Compound 106] ?
0.04

Reported Ki for PI3Kα (Homo sapiens (Human), UniProt P42336), given C[C@H](Nc1ccc2c(c1)OCCn1cc(N3C(=O)OC[C@H]3C(F)F)nc1-2)C(N)=O [Compound 101] ?
0.034

Reported Ki for PI3Kα (Homo sapiens (Human), UniProt P42336), given CC(C)n1ncnc1-c1cn2c(n1)-c1ccc(OC(C(N)=O)C3CC3)cc1OCC2 (single isomer, unassigned) [549 (separated stereoisomer 2), reference compound] ?
5.66

Reported Ki for PI3Kα (Homo sapiens (Human), UniProt P42336), given CC(C)C(Oc1ccc2c(c1)OCCn1cc(-c3ncnn3CC(F)(F)F)nc1-2)C(N)=O (stereo not drawn) [Compound 501, reference compound] ?
3.56

Reported Ki for PI3Kα (Homo sapiens (Human), UniProt P42336), given NC(=O)[C@@H](Nc1ccc2c(c1)OCCn1cc(N3C(=O)OC[C@H]3C(F)F)nc1-2)C1CC1 [Compound 103] ?
0.06

Reported Ki for PI3Kα (Homo sapiens (Human), UniProt P42336), given CC(C)n1ncnc1-c1cn2c(n1)-c1ccc(OC(C(N)=O)C3CC3)cc1OCC2 (single isomer, unassigned) [549 (separated stereoisomer 1), reference compound] ?
0.56

###

- assay: Multiple day oral dosing in dogs (exposure, clinical and anatomic pathology)
- Format: in vivo, Beagle dogs
- condition.context: Beagle, plasma, oral; dog, alpelisib (BYL-719) 3 mg/kg/day QD, D7; read-out: Cmin D7, total
quantity.kind: concentration at 7 day (nM)
A number alone suffices; assume nM.

What value of concentration at 7 day has been reported for the following compound? Cc1nc(NC(=O)N2CCC[C@H]2C(N)=O)sc1-c1ccnc(C(C)(C)C(F)(F)F)c1 [alpelisib]
200
